pKd listing for selected binders.
- systemTested: fTI, fluorescently labelled H14 foldamer TI
- experiment: fluorescence polarisation; direct FP: S100 protein diluted in 50 nM labeled foldamer, 20 mM HEPES pH 7.5, 150 mM NaCl, 1 mM CaCl2, 0.5 mM TCEP, 0.01% Tween20; quadratic fit (ProFit); detection threshold Kd 1 mM
pKd: −log10 of the molar value.

| binder | pKd |
| --- | --- |
| S100B (natural protein) MSELEKAMVALIDVFHQYSGREGDKHKLKKSELKELINNELSHFLEEIKEQEVVDKVMETLDNDGDGECDFQEFMAFVAMVTTACHEFFEHE | < 3.00 |

Could you now consider this next binder?
Prompt: Fill in: pKd of S100A11 (natural protein) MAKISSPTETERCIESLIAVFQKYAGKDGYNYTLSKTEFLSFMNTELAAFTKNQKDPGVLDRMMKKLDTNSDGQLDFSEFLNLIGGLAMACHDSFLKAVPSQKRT is ___
Completion: < 3.00
